Listed next: entries and their corresponding MIC.
# Tested on: S. aureus (ATCC 6538)
# protocol_notes: MIC, broth microdilution
# Assay type: cell-based
# condition_parameters: Staphylococcus aureus, ATCC6538; broth microdilution, 18 h, 37 °C; read-out: MIC S. aureus (ATCC 6538)
Counter-ions that a name gives are not always drawn.

[
  {
    "compound": "CC[C@]1(O)C[C@H]2CN(CCc3c([nH]c4ccccc34)[C@@](C(=O)OC)(c3cc4c(cc3OC)N(C=O)[C@H]3[C@@](O)(C(=O)OC)[C@H](OC(C)=O)[C@]5(CC)C=CCN6CC[C@]43[C@@H]65)C2)C1 [Compound 6, Vincristine sulfate]",
    "MIC [µM]": 8
  },
  {
    "compound": "COc1ccc2cc3[n+](cc2c1OC)CCc1cc2c(cc1-3)OCO2 [Compound 82, Berberine]",
    "MIC [µM]": 4
  },
  {
    "compound": "CC(C)CNc1ccnc(NCc2csc(-c3ccccc3)n2)n1 [Compound 60, KHS 101]",
    "MIC [µM]": 8
  }
]
